Ref: PubChem BioAssay AID1259407

Test system: CCRIS mutagenicity, Ames/micronucleus/aberration tests
Assay: CCRIS mutagenicity studies
Conditions: Test System: AMES SALMONELLA TYPHIMURIUM; Strain/Indicator: TA98; Metabolic Activation: NONE; Method: STANDARD PLATE
The source made the active and inactive calls. How the calls were made is not given here.
Assay Readout: mutagenic call

[[record]]
molecule = "CCC(C)c1ccc(/C=C/c2ccc(N)cc2)cc1 (stereo not drawn)"
assay_readout = "mutagenic call"
result = "inactive; negative"

[[record]]
molecule = "COc1ccccc1NC(=O)c1csc([N+](=O)[O-])c1"
assay_readout = "mutagenic call"
result = "active; positive"

[[record]]
molecule = "CC(=O)Nc1ccc2[nH]c3ccccc3c2c1"
assay_readout = "mutagenic call"
result = "inactive; negative"

[[record]]
molecule = "O=C(C(=O)c1ccccc1)c1ccccc1"
assay_readout = "mutagenic call"
result = "inactive; negative"

[[record]]
molecule = "OCc1cccc2c1-c1cccc3cccc-2c13"
assay_readout = "mutagenic call"
result = "inactive; negative"

[[record]]
molecule = "C1COCCO1"
assay_readout = "mutagenic call"
result = "inactive; negative"

[[record]]
molecule = "CC(=O)c1c(O)cc(O)c2c1C(=O)c1cc(O)cc(O)c1C2=O"
assay_readout = "mutagenic call"
result = "inactive; negative"

[[record]]
molecule = "Cc1ccc2c(c1)C(=O)c1ccccc1C2=O"
assay_readout = "mutagenic call"
result = "inactive; negative"

[[record]]
molecule = "Nc1ccc2cc(S(=O)(=O)O)c(N=Nc3ccc(N=Nc4ccc(NCCO)cc4NCCO)cc3OCCO)c(O)c2c1"
assay_readout = "mutagenic call"
result = "inactive; negative"

[[record]]
molecule = "O=[N+]([O-])c1ccc2ccc3c4c(cc5ccc1c2c53)C=CCC4"
assay_readout = "mutagenic call"
result = "active; positive"

[[record]]
molecule = "Cc1ccc(C)c(C)c1"
assay_readout = "mutagenic call"
result = "inactive; negative"

[[record]]
molecule = "CC(=O)NO"
assay_readout = "mutagenic call"
result = "active; positive"

[[record]]
molecule = "[O-][N+](=Nc1ccc(Cl)c(Cl)c1)c1ccc(Cl)c(Cl)c1"
assay_readout = "mutagenic call"
result = "inactive; negative"

